- measured_target: sGC α1/β1 heterodimer (Homo sapiens, UniProt Q02108+Q02153)
- assay_notes: Cell-based sGC functional assay (CASA assay): cGMP generation in CHO-K1/sGC cells, HTRF detection
- assay_setup: inflection point (IP) of cGMP generation in CHO-K1/sGC cells, 4P fit; activity expressed as percentage of Compound A

compound	EC50 / nM
CC1(c2ccc(F)cc2)C(=O)Nc2nc(-c3cn4cc(C#N)nc4c(CCC(F)(F)C(F)(F)F)n3)nc(N)c21 (stereo not shown) [Example 275A]	89
COCCNc1nc(-c2cn3ccnc3c(CCC(F)(F)C(F)(F)F)n2)nc2c1C(C)(C)C(=O)N2	25
Cc1nc2c(CCC(F)(F)C(F)(F)F)nc(-c3nc(N)c4c(n3)NC(=O)C4(C)c3ccc(F)cc3)cn2c1C (stereo not shown) [Example 177A]	129
CCCCc1nc(-c2nc(N)c3c(n2)NC(=O)C3(c2ccc(Cl)cc2)C2CCC2)cn2ccnc12 (single isomer, unassigned) [Example 358B]	20

---

- measured_target: sGC α1/β1 heterodimer (Homo sapiens, UniProt Q02108+Q02153)
- Construct: expressed in transfected cells; host or cells: CHO-K1 (clone #7, CHO-K1/sGC)
- Sequence (Q02108 1-690): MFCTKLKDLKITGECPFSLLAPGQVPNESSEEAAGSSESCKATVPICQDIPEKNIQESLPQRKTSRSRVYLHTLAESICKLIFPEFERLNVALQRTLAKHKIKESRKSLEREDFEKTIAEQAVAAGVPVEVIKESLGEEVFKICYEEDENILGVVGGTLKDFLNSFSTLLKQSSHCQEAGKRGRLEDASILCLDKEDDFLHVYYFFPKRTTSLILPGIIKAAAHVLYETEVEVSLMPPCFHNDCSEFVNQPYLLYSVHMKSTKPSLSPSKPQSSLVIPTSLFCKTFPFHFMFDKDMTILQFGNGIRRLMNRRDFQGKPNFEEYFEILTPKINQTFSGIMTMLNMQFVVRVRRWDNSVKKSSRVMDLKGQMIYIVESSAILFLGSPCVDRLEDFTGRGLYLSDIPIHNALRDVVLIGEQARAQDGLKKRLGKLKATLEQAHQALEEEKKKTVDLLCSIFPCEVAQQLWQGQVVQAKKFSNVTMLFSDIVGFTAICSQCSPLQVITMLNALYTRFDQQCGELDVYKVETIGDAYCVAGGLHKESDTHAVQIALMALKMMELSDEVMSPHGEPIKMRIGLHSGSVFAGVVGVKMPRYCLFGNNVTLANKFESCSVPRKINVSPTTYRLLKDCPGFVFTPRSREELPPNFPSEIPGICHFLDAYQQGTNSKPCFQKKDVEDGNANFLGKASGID
- Sequence (Q02153 1-619): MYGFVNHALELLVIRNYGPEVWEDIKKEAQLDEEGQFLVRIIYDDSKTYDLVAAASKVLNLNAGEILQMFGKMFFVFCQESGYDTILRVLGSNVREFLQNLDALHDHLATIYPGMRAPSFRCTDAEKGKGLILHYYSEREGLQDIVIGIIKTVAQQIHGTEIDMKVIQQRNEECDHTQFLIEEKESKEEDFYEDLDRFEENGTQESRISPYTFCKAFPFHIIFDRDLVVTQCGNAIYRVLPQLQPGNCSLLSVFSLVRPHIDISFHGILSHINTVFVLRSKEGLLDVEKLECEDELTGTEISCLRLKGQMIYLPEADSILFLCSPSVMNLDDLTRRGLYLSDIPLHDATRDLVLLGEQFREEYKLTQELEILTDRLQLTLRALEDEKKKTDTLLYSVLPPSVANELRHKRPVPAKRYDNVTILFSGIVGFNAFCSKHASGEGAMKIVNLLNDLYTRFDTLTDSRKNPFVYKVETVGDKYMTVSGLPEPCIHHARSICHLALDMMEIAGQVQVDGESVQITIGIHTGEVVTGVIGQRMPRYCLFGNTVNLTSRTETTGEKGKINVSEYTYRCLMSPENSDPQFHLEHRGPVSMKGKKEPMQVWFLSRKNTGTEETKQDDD
- assay_notes: Cell-based sGC functional assay (CASA assay): cGMP generation in CHO-K1/sGC cells, HTRF detection
- assay_setup: CHO-K1, percent activation relative to standard Compound A in CHO-K1/sGC cells; read-out: % Act.
property_label: Emax (%)

compound	measured_target	property_label	val
Nc1nc(-c2cn3cc(C(F)(F)F)nc3c(Cc3ccccc3F)n2)nc2c1C(C(=O)NC1CC1)(C1CC1)C(=O)N2 (single isomer, unassigned) [Example 45B]	sGC α1/β1 heterodimer (Homo sapiens, UniProt Q02108+Q02153)	Emax	75
CC(C)Cc1nc(-c2nc(N)c3c(n2)NC(=O)C3(c2ccc(Cl)cn2)C2CC2)cn2ccnc12 (stereo not drawn) [Example 126B]	sGC α1/β1 heterodimer (Homo sapiens, UniProt Q02108+Q02153)	Emax	160
CC1(c2ccc(Cl)cc2)C(=O)Nc2nc(-c3cn4ccnc4cn3)nc(N3CC(F)(F)C3)c21 (single isomer, unassigned) [Example 277A]	sGC α1/β1 heterodimer (Homo sapiens, UniProt Q02108+Q02153)	Emax	106
CCCCc1nc(-c2nc(N)c3c(n2)NC(=O)C3(c2ccc(OC(F)(F)F)cc2)C2CC2)cn2ccnc12 (stereo not drawn) [Example 346A]	sGC α1/β1 heterodimer (Homo sapiens, UniProt Q02108+Q02153)	Emax	132
Nc1nc(-c2cn3ccnc3c(CCCC(F)(F)F)n2)nc2c1C(c1ccc(F)c(F)c1)(C1CC1)C(=O)N2 (stereo not drawn) [Example 317A]	sGC α1/β1 heterodimer (Homo sapiens, UniProt Q02108+Q02153)	Emax	156
Nc1nc(-c2cn3ccnc3c(CCC(F)(F)F)n2)nc2c1C(c1ccc(Cl)cc1F)(C1CC1)C(=O)N2 (stereo not drawn) [Example 338A]	sGC α1/β1 heterodimer (Homo sapiens, UniProt Q02108+Q02153)	Emax	158

---

- measured_target: sGC α1/β1 heterodimer (Homo sapiens, UniProt Q02108+Q02153)
- Construct: expressed in transfected cells; host or cells: CHO-K1 (clone #7, CHO-K1/sGC)
- assay_notes: Cell-based sGC functional assay (CASA assay): cGMP generation in CHO-K1/sGC cells, HTRF detection
- assay_setup: inflection point (IP) of cGMP generation in CHO-K1/sGC cells, 4P fit; activity expressed as percentage of Compound A
- Procedure: Biological Assay 1: Cell-Based sGC Functional Assay (CASA Assay) sGC is a heme-containing enzyme that converts GTP to secondary messenger cGMP. […] A CHO-K1 cell line stably expressing the sGC α1/β1 heterodimer was generated using a standard transfection protocol. […] The level of intracellular cGMP was determined using an HTRF-based assay kit (CisBio, 62GM2PEC), which detects the displacement of a fluorescence labeled cGMP from its specific antibody. […]
Rule: EC50 below 80 nM gives TRUE. Equal to or above 80 nM gives FALSE.

compound	measured_target	group
Nc1nc(-c2cn3ccnc3c(CCCC(F)(F)F)n2)nc2c1C(c1ccccn1)(C1CC1)C(=O)N2 (stereo not drawn) [Example 383B]	sGC α1/β1 heterodimer (Homo sapiens, UniProt Q02108+Q02153)	FALSE
Cc1cc(C2(C3CC3)C(=O)Nc3nc(-c4cn5ccnc5c(CCC(F)(F)C(F)(F)F)n4)nc(N)c32)ncc1F (single isomer, unassigned) [Example 376B]	sGC α1/β1 heterodimer (Homo sapiens, UniProt Q02108+Q02153)	FALSE
CC1(c2noc(C3CC3)n2)C(=O)Nc2nc(-c3cn4ccnc4c(CCC(F)(F)C(F)(F)F)n3)nc(N)c21 (single isomer, unassigned) [Example 333B]	sGC α1/β1 heterodimer (Homo sapiens, UniProt Q02108+Q02153)	FALSE
CC1(c2ccc(Cl)cc2)C(=O)Nc2nc(-c3cn4ccnc4c(Cc4cccc(Cl)c4)n3)nc(N)c21 (stereo not drawn) [Example 95A]	sGC α1/β1 heterodimer (Homo sapiens, UniProt Q02108+Q02153)	TRUE
Nc1nc(-c2cn3ccnc3c(Cc3ccccc3F)n2)nc2c1C(c1ccc(Cl)cn1)(C1CC1)C(=O)N2 (stereo not drawn) [Example 110A]	sGC α1/β1 heterodimer (Homo sapiens, UniProt Q02108+Q02153)	TRUE
Nc1nc(-c2cn3ccnc3c(Cc3ccc(F)cc3)n2)nc2c1C(c1ccc(Cl)cn1)(C1CC1)C(=O)N2 (single isomer, unassigned) [Example 108B]	sGC α1/β1 heterodimer (Homo sapiens, UniProt Q02108+Q02153)	TRUE
CCCc1nc(-c2nc(N)c3c(n2)NC(=O)C3(C)c2ccc(F)cc2)cn2ccnc12 (stereo not drawn) [Example 17A]	sGC α1/β1 heterodimer (Homo sapiens, UniProt Q02108+Q02153)	FALSE
CCC1(c2ccc(Cl)c(F)c2)C(=O)Nc2nc(-c3cn4ccnc4c(CCC(F)(F)F)n3)nc(N)c21 (stereo not drawn) [Example 199A]	sGC α1/β1 heterodimer (Homo sapiens, UniProt Q02108+Q02153)	FALSE
CC(C)(C)CCc1nc(-c2nc(N)c3c(n2)NC(=O)C3(C)c2ccc(Cl)cn2)cn2ccnc12 (stereo not drawn) [Example 123A]	sGC α1/β1 heterodimer (Homo sapiens, UniProt Q02108+Q02153)	TRUE
CC1(c2ccc(F)cc2)C(=O)Nc2nc(-c3cn4ccnc4c(CCC(F)(F)C(F)(F)F)n3)nc(N3CCOCC3)c21 (stereo not drawn) [Example 310A]	sGC α1/β1 heterodimer (Homo sapiens, UniProt Q02108+Q02153)	TRUE
CCC1(C)C(=O)Nc2nc(-c3cn4ccnc4c(Cc4ccccc4)n3)nc(N)c21 (stereo not drawn) [Example 84A]	sGC α1/β1 heterodimer (Homo sapiens, UniProt Q02108+Q02153)	TRUE
CC1(c2ccc(F)cc2F)C(=O)Nc2nc(-c3cn4ccnc4cn3)nc(N)c21 (stereo not drawn) [Example 139A]	sGC α1/β1 heterodimer (Homo sapiens, UniProt Q02108+Q02153)	FALSE
Nc1nc(-c2cn3cc(C(F)(F)F)nc3c(Cc3ccccc3F)n2)nc2c1C(C(=O)NC1CC1)(C1CC1)C(=O)N2 (stereo not drawn) [Example 45A]	sGC α1/β1 heterodimer (Homo sapiens, UniProt Q02108+Q02153)	FALSE
Cc1cnc(C2(C3CC3)C(=O)Nc3nc(-c4cn5ccnc5c(CCCC(F)(F)F)n4)nc(N)c32)cn1 (single isomer, unassigned) [Example 357B]	sGC α1/β1 heterodimer (Homo sapiens, UniProt Q02108+Q02153)	FALSE
CC(C)Cc1nc(-c2nc(N)c3c(n2)NC(=O)C3(C)c2ccc(OC(F)F)cn2)cn2ccnc12 (stereo not drawn) [Example 130A]	sGC α1/β1 heterodimer (Homo sapiens, UniProt Q02108+Q02153)	FALSE
CC1(c2ccc(F)cc2)C(=O)Nc2nc(-c3cn4cc(C5CC5)nc4c(CCC(F)(F)C(F)(F)F)n3)nc(N)c21 (stereo not drawn) [Example 157A]	sGC α1/β1 heterodimer (Homo sapiens, UniProt Q02108+Q02153)	FALSE
Nc1nc(-c2cn3ccnc3c(CCC(F)(F)C(F)(F)F)n2)nc2c1C(c1cncc(F)c1)(C1CC1)C(=O)N2 (stereo not drawn) [Example 353B]	sGC α1/β1 heterodimer (Homo sapiens, UniProt Q02108+Q02153)	FALSE
Nc1nc(-c2cn3ccnc3c(CCCC(F)(F)F)n2)nc2c1C(c1ccc(F)cc1)(C1CC1)C(=O)N2 (stereo not drawn) [Example 205B]	sGC α1/β1 heterodimer (Homo sapiens, UniProt Q02108+Q02153)	TRUE
CC1(C2CC2)C(=O)Nc2nc(-c3cn4ccnc4c(Cc4ccccc4)n3)nc(N)c21 (single isomer, unassigned) [Example 82B]	sGC α1/β1 heterodimer (Homo sapiens, UniProt Q02108+Q02153)	FALSE
CC1(c2ccc(Cl)cc2)C(=O)Nc2nc(-c3cn4cc(C(F)(F)F)nc4c(Cc4ccc(F)cc4)n3)nc(N)c21 (stereo not drawn) [Example 153A]	sGC α1/β1 heterodimer (Homo sapiens, UniProt Q02108+Q02153)	TRUE
CC1(c2ccc(Cl)cn2)C(=O)Nc2nc(-c3cn4c(N)cnc4c(CCC(F)(F)C(F)(F)F)n3)nc(N)c21 (stereo not drawn) [Example 269A]	sGC α1/β1 heterodimer (Homo sapiens, UniProt Q02108+Q02153)	FALSE
CC1(c2ccc(F)cc2)C(=O)Nc2nc(-c3cn4cc(C(F)(F)F)nc4c(Cc4ccc(F)c(F)c4)n3)nc(N)c21 (stereo not drawn) [Example 152A]	sGC α1/β1 heterodimer (Homo sapiens, UniProt Q02108+Q02153)	TRUE
CCCc1nc(-c2nc(N)c3c(n2)NC(=O)C3(c2ccc(F)c(F)c2)C2CC2)cn2ccnc12 (stereo not drawn) [Example 334A]	sGC α1/β1 heterodimer (Homo sapiens, UniProt Q02108+Q02153)	FALSE
CC(C)CCc1nc(-c2nc(N)c3c(n2)NC(=O)C3(C)c2ccc(Cl)cc2)cn2ccnc12 (stereo not drawn) [Example 14A]	sGC α1/β1 heterodimer (Homo sapiens, UniProt Q02108+Q02153)	FALSE
CC1(c2ccc(Cl)c(F)c2)C(=O)Nc2nc(-c3cn4ccnc4c(CC4CCC4)n3)nc(N)c21 (stereo not drawn) [Example 113B]	sGC α1/β1 heterodimer (Homo sapiens, UniProt Q02108+Q02153)	TRUE
CC1(c2ccc(Cl)cc2)C(=O)Nc2nc(-c3cn4ccnc4c(CCC(F)(F)F)n3)nc(N)c21 (stereo not drawn) [Example 182A]	sGC α1/β1 heterodimer (Homo sapiens, UniProt Q02108+Q02153)	TRUE
